- measurement description: Metabolic stability in cryopreserved human hepatocytes
- Assay type: in vitro ADME
- condition set: human, cryopreserved human hepatocytes (pooled, suspension), supplement CSV; human hepatocytes; read-out: HLH t1/2
readout label: half-life at 1 µM (h)

a = O=C1CCC(N2C(=O)c3cccc(NCCOCCOCCOc4c(-c5csc(N6CCOCC6)n5)ccc(F)c4F)c3C2=O)C(=O)N1 (stereo not drawn) [Compound 32]
b = Cc1ncsc1-c1ccc([C@H](C)NC(=O)[C@@H]2C[C@@H](O)CN2C(=O)[C@@H](NC(=O)CCCCNC(=O)c2ccc3c(c2)nc(Nc2cccc(Cl)c2)c2ccncc23)C(C)(C)C)cc1 [Compound 17]
Query string: # min-compare on half-life at 1 µM between a and b Indicate which entry you chose by stating its label.
Result string: a

I = Cc1ncsc1-c1ccc([C@H](C)NC(=O)[C@@H]2C[C@@H](O)CN2C(=O)[C@@H](NC(=O)CCCCn2cc(COc3c(-c4csc(N5CCOCC5)n4)ccc(F)c3F)nn2)C(C)(C)C)cc1 [Compound 39]
II = Cc1sc2c(c1C)C(c1ccc(Cl)cc1)=N[C@@H](CC(=O)NCCCCCCCCNC(=O)COc1cccc3c1C(=O)N(C1CCC(=O)NC1=O)C3=O)c1nnc(C)n1-2 (stereo partly drawn) [Compound 2, dBet6, reference compound]
Query string: # min-compare on half-life at 1 µM between I and II Indicate which entry you chose by stating its label.
Result string: II
